Here, each record is paired with measured pEC50 data.
molecular target: human GPR40 (Homo sapiens, UniProt O14842); assay: Cell-based aequorin assay using human GPR40; conditions: activation of human GPR40; CHO cells transfected with GPR40 and aequorin expression vectors; aequorin luminescence, area-under-curve 2-20 seconds; read-out: Relative EC50
Sequence (O14842 whole entry): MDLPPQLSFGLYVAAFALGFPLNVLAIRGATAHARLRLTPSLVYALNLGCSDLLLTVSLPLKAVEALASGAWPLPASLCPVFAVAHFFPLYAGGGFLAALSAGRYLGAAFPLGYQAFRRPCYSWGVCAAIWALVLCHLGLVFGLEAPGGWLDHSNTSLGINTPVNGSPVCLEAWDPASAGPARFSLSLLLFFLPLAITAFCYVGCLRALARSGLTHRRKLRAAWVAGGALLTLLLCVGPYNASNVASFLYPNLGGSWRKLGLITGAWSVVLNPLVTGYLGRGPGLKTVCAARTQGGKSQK
pEC50: −log10 of the molar value.

CC#CC(CC(=O)O)c1ccc(OCc2cccc(N(CC)c3ccccc3)c2)cc1 (centres unmarked)    7.00 to 8.00

# pEC50 of CC#CC(CC(=O)O)c1ccc(OCc2sc(-c3ccccc3)nc2C)cc1 (centres unmarked) = 7.00 to 8.00

# pEC50 of CC#CC(CC(=O)O)c1ccc(OCc2cccc(Oc3ccccc3)c2)cc1 (centres unmarked) = 7.00 to 8.00

# pEC50 of CC#C[C@@H](CC(=O)O)c1ccc(OCc2sc(-c3ccc(C)cc3)nc2C)cc1 = > 8.00

# pEC50 of OC(O)CC(c1ccc(OCc2cccc(-c3ccc(C(F)(F)F)cc3)c2)cc1)C1CC1 (centres unmarked) = 5.00 to 6.00

# pEC50 of CC#CC(CC(=O)O)c1ccc(OCc2ccc(-c3nc4ccccc4[nH]3)cc2)cc1 (centres unmarked) = 5.00 to 6.00

# pEC50 of CC#CC(CC(=O)O)c1ccc(OCc2ccc(-c3ccc(OCC)cc3)cc2)cc1 (centres unmarked) = 6.00 to 7.00

# pEC50 of O=C(O)CC(c1ccc(F)cc1)c1ccc(OCc2cccc(-c3ccc(C(F)(F)F)cc3)c2)cc1 (centres unmarked) = 6.00 to 7.00

# pEC50 of Cc1ccccc1COc1ccc(C(C#CC(F)(F)F)CC(=O)O)cc1 (centres unmarked) [Compound 87] = < 5.00

----------
Target: human GPR40 (Homo sapiens, UniProt O14842)
Construct: expressed in transfected cells; host or cells: CHO cells, transiently transfected with Lipofectamine 2000 and co-transfected with an aequorin expression vector (Euroscreen)
Assay: Cell-based aequorin assay using human GPR40
Settings: activation of human GPR40; CHO cells transfected with GPR40 and aequorin expression vectors; aequorin luminescence, area-under-curve 2-20 seconds; read-out: Relative EC50
Procedure: A cell-based aequorin assay may be employed to characterize the modulatory activity of compounds on the GPR40 signaling pathway. […] Aequorin luminescence measurements are made using an EG&G Berthold 96-well luminometer and the response is measured over a 20 second interval after cells and compounds were mixed. […]
Here, each record is paired with measured EC50 data.

Consider the following illustrative entries.
CC#CC(CC(=O)O)c1ccc(OCc2cn(-c3ccc(Cl)cc3)nn2)cc1 (stereo not drawn)    1 to 10 µM
Cc1ccc(C(CC(=O)O)c2ccc(OCc3cccc(Oc4ccccc4)c3)cc2)cc1 (single isomer, unassigned) [Compound 84.2]    1 to 10 µM
CC#CC(CC(=O)O)c1ccc(OCc2csc(-c3ccc(OC)c(OC)c3)n2)cc1 (stereo not drawn)    0.1 to 1 µM
CC#CC(CC(=O)O)c1ccc(OCc2cccc(-c3ccccn3)c2)cc1 (stereo not drawn)    0.1 to 1 µM
CC#CC(CC(=O)O)c1ccc(OCc2ccc(-n3cncn3)cc2)cc1 (stereo not drawn)    1 to 10 µM
CC#CC(CC(=O)O)c1ccc(OCc2nc(-c3ccc(C(F)(F)F)cc3)oc2C)cc1 (stereo not drawn)    0.01 to 0.1 µM

# EC50 of CC#CC(CC(=O)O)c1ccc(N(Cc2cccc(OC)c2)Cc2cccc(OC)c2)cc1 (stereo not drawn) = 0.1 to 1 µM

----------
molecular target: human GPR40 (Homo sapiens, UniProt O14842); assay: Cell-based aequorin assay using human GPR40; conditions: activation of human GPR40; CHO cells transfected with GPR40 and aequorin expression vectors; aequorin luminescence, area-under-curve 2-20 seconds; read-out: Relative EC50
pEC50: −log10 of the molar value.
Here, each record is paired with measured pEC50 data.

Consider the following illustrative entries.
O=C(O)CC(c1ccc(OCc2cccc(-c3ccc(C(F)(F)F)cc3)c2)cc1)c1nn[nH]n1 (centres unmarked)    5.00 to 6.00
CC#CC(CC(=O)O)c1ccc(OCc2ccc(-c3ccccc3)cc2)cc1 (centres unmarked)    5.00 to 6.00
CC#CC(CC(=O)O)c1ccc(NC(=O)c2cccc(OC)c2)cc1 (centres unmarked)    5.00 to 6.00

# pEC50 of CN(C)[C@@H](CC(=O)O)c1ccc(OCc2cccc(Oc3ccc(F)cc3)c2)cc1 (stereo in doubt) = 6.00 to 7.00

# pEC50 of O=C(O)CC(c1ccc(OCc2cccc(Oc3ccccc3)c2)cc1)c1cccc(C(F)(F)F)c1 (centres unmarked) = 6.00 to 7.00

# pEC50 of COc1ccc(COc2ccc(C(C)CC(=O)O)cc2)cc1 (centres unmarked) = < 5.00

# pEC50 of CC(=O)N[C@@H](CC(=O)O)c1ccc(OCc2cccc(Oc3ccc(F)cc3)c2)cc1 = 5.00 to 6.00

# pEC50 of CC#CC(CC(=O)O)c1ccc(N(C)Cc2cccc(OC)c2)cc1 (centres unmarked) = 5.00 to 6.00

----------
Here, each record is paired with measured pEC50 data.
molecular target: human GPR40 (Homo sapiens, UniProt O14842); test: Cell-based aequorin assay using human GPR40; settings: activation of human GPR40; CHO cells transfected with GPR40 and aequorin expression vectors; aequorin luminescence, area-under-curve 2-20 seconds; read-out: Relative EC50
pEC50: −log10 of the molar value.

# pEC50 of COc1ccc(COc2ccc(C(C=C(C)C)CC(=O)O)cc2)cc1 (stereo not drawn) [Compound 34.5] = 6.00 to 7.00

# pEC50 of CC#CC(CC(=O)O)c1ccc(OCc2csc(-c3ccc(C)cc3)n2)cc1 (stereo not drawn) [Compound 8.5] = 7.00 to 8.00

# pEC50 of CCC(CC(=O)O)c1ccc(OCc2ccc(OC)cc2)cc1 (stereo not drawn) [Compound 14.3] = 5.00 to 6.00

# pEC50 of C=CCC(CC(=O)O)c1ccc(OCc2ccc(OC)cc2)cc1 (stereo not drawn) [Compound 34.4] = 5.00 to 6.00

# pEC50 of O=C(O)CC(c1ccc(OCc2cccc(-c3ccc(C(F)(F)F)cc3)c2)cc1)c1nccs1 (stereo not drawn) [Compound 56] = 6.00 to 7.00

# pEC50 of COCC#CC(CC(=O)O)c1ccc(OCc2ccc(OC)cc2)cc1 (stereo not drawn) [Compound 14.5] = 5.00 to 6.00

# pEC50 of C#CC(CC(=O)O)c1ccc(OCc2ccc(OC)cc2)cc1 (stereo not drawn) [Compound 41] = 6.00 to 7.00

# pEC50 of Cc1ccc(C(CC(=O)O)c2ccc(OCc3cccc(Oc4ccccc4)c3)cc2)cc1 (single isomer, unassigned) [Compound 84.3] = 6.00 to 7.00

# pEC50 of CC#CC(CC(=O)O)c1ccc(OCc2cccc(-c3ccccc3OCC)c2)cc1 (stereo not drawn) [Compound 6.2] = 7.00 to 8.00

----------
target: human GPR40 (Homo sapiens); assay: Cell-based aequorin assay using human GPR40; conditions: activation of human GPR40; CHO cells transfected with GPR40 and aequorin expression vectors; aequorin luminescence, area-under-curve 2-20 seconds; read-out: Relative EC50
pEC50: −log10 of the molar value.
Here, each record is paired with measured pEC50 data.

Consider the following illustrative entries.
CC#CC(Cc1nnn[nH]1)c1ccc(OCc2ccccc2C)cc1 (stereo not shown) [Compound 23]    5.00 to 6.00
O=C(O)C[C@H](NC(=O)/C=C/c1ccccc1)c1ccc(OCc2cccc(Oc3ccc(F)cc3)c2)cc1 [Compound 88.5]    < 5.00
Cc1ccccc1C(CC(=O)O)c1ccc(OCc2cccc(Oc3ccccc3)c2)cc1 (stereo not shown) [Compound 84.4]    6.00 to 7.00
COc1cccc(C(CC(=O)O)c2ccc(OCc3cccc(Oc4ccccc4)c3)cc2)c1 (stereo not shown) [Compound 84.8]    6.00 to 7.00
CC#CC(CC(=O)O)c1ccc(OCc2sc(-c3ccc(C)cc3)nc2C)cc1 (stereo not shown) [Compound 9.2]    > 8.00

# pEC50 of COc1ccc(COc2ccc(C(C#C[Si](C)(C)C)CC(=O)O)cc2)cc1 (stereo not shown) [Compound 14.1] = 5.00 to 6.00

# pEC50 of CC#CC(CC(=O)O)c1ccc(OCc2ccccc2C)cc1 (stereo not shown) [Compound 17.6] = 6.00 to 7.00

# pEC50 of COc1ccc(COc2ccc(C(CC(=O)O)c3ccc(F)cc3)cc2)cc1 (stereo not shown) [Compound 14.2] = 6.00 to 7.00

# pEC50 of CC#CC(CC(=O)O)c1ccc(OCc2ccc(-c3ccccc3OCC)cc2)cc1 (stereo not shown) [Compound 7.5] = 7.00 to 8.00

# pEC50 of CC#C[C@@H](CC(=O)O)c1ccc(OCc2nc(-c3ccc(C(F)(F)F)cc3)oc2C)cc1 [Compound 86] = > 8.00

# pEC50 of CC#CC(CC(=O)O)c1ccc(OCc2cnn(-c3ccc(F)cc3)c2C)cc1 (stereo not shown) [Compound 11.1] = 6.00 to 7.00

# pEC50 of CC#CC(CC(=O)O)c1ccc(OCc2ccc(-c3ccc(C(F)(F)F)cc3)cc2)cc1 (stereo not shown) [Compound 7.10] = 6.00 to 7.00

# pEC50 of CC#CC(CC(=O)NS(C)(=O)=O)c1ccc(OCc2ccc(OC)cc2)cc1 (stereo not shown) [Compound 81] = 5.00 to 6.00

# pEC50 of O=C(O)CC(c1ccc(OCc2cccc(Oc3ccccc3)c2)cc1)c1cccc(Cl)c1 (stereo not shown) [Compound 84.6] = 6.00 to 7.00
